Measured values drawn from ChEMBL document CHEMBL1157539 for this set.

System: Plasmodium falciparum
assayText: GSK_TCMDC: Inhibition of Plasmodium falciparum Dd2 in whole red blood cells, using parasite LDH activity as an index of growth. Test compounds present at 2uM
Format: functional
Label rule met when Inhibition >= 90%; otherwise rule not met.

Observe how each entry below is paired with its result.
COc1cccc(CN2CCCC(OC(c3ccc(F)cc3)c3ccc(F)cc3)C2)c1O (centres undefined) : rule met
Cc1cccc2nc(-c3cccc(-c4ccc(NC(=O)c5ccc(=O)[nH]n5)cc4)c3)[nH]c12 : rule not met

[in] Say whether Cl.O=C(c1ccc(Cl)c(Cl)c1)N1CCc2c([nH]c3ccccc23)C1CN1CCCC1 (centres undefined) shows Inhibition of 90% or more.
[out] rule not met

[in] Hi, just wondering whether Cc1ccc(N2C(N)=NC(N)=NC2c2ccccc2)cc1.Cl (centres undefined) shows Inhibition of 90% or higher.
[out] rule not met

[in] Could you please find out whether COc1cc2c(Nc3ccc(NC(=O)c4ccccc4)cc3)ncnc2cc1OCCCN1CCOCC1 has Inhibition that meets 90% or exceeds it?
[out] rule met

[in] // inclusive: Inhibition at least 90%? input: COc1ccc(-c2cnc3[nH]cc(-c4ccc(CCC(=O)O)cc4)c3c2)cn1.O=C(O)C(F)(F)F
[out] rule met

[in] Say whether Cc1ccc(-c2nc(N3CCN(C(=O)c4ccco4)CC3)c3ccccc3n2)cc1 shows Inhibition of 90% or more.
[out] rule not met

[in] Hi, just wondering whether O=C(NCCCCN1CCC(c2c[nH]c3ccccc23)CC1)c1sc(-c2ccc(C(F)(F)F)cc2)nc1CO shows Inhibition of 90% or higher.
[out] rule not met

* * *

System: HepG2
assayText: GSK_TCMDC: Percent inhibition of human HepG2 cell line. Test compounds present at 10uM.
Type: functional
As shown below, each of these compounds has a reported Inhibition value.
Write the answer as a number in %, unit excluded.

O=c1cc(NC[C@H]2CCC[C@@H]2NC2CCCc3c2[nH]c2ccccc32)[nH]c2ccccc12 (stereo partly drawn) : 6
Cc1cccc2nc(-c3cccc(-c4ccc(C(=O)NCCc5ccc(O)c(=O)[nH]5)cc4)c3)[nH]c12 : 20
COc1ccc(Nc2nc(NCc3ccc(-n4ccnc4)cc3)cc(-c3ccc(OC)cc3)n2)cc1 : 8
COc1cc(C2NCC3(CCOCC3)c3cc4c(cc32)OCCO4)cc(OC)c1OC.Cl (stereo not drawn) : 24
O=C(O)C(F)(F)F.OCC1CCN(Cc2ccc(-c3cccc(-c4nc5cc(F)ccc5[nH]4)c3)cc2)CC1 : 14

[in] Please supply the value of reported Inhibition for the item Br.COc1ccc(CC(C)CON2C(N)=NC(N)=NC2(C)C)cc1 (stereo not drawn)
[out] 59

[in] Give me measured Inhibition, please, for this compound: CC(=O)N(Cc1nc(-c2cc(C(F)(F)F)cc(C(F)(F)F)c2)cs1)c1c(C)cccc1C
[out] 0

[in] Note down Inhibition recorded for CC(C)Sc1nc2c(c(=O)n1CCc1ccccc1)C1(CCCCC1)Cc1ccccc1-2
[out] 8

[in] Look up and report measured Inhibition for this entry: O=C(Nc1ccc(-c2ccc(-c3nc4ccccc4[nH]3)cc2)cc1)Nc1ccc(Cl)c(Cl)c1
[out] 68

[in] Given CCN(CC)CCN(Cc1ccc(-c2ccc(C(F)(F)F)cc2)cc1)C(=O)Cn1c(CCc2cccc(F)c2F)nc(=O)c2cccnc21.O=C(O)C(O)C(O)C(=O)O , respond with its Inhibition.
[out] 75

[in] Please give the documented Inhibition of Cc1ccnc(NC(c2ccc(Cl)c([N+](=O)[O-])c2)c2ccc3cccnc3c2O)c1 (stereo not drawn)
[out] 47

[in] Tell me measured Inhibition for CC(C)(C)c1ccccc1OC(=O)c1ccccc1 please.
[out] 0
